I'd be grateful if you could share measured pKd for these entries.
MEASURED ON: T1, scHLA-B27-mmH (engineered HLA-B*27 ectodomain in-line fusion protein) (human (HLA-B*2705, beta-2 …))
T1 construct: also called soluble HLA-B*27 fusion protein
METHOD DESCRIPTION: SPR (Biacore), mAb captured, 25 C, PBS pH 7.2
// pKd here means minus log10 of the molar concentration (mol/L)

Record request: pKd value, item H4H2718N (antibody, V domains shown) VH: EVQLVESGGGLVQPGRSLRLSCAASGFTFDEYAMHWVRQVPGKGLEWVSGISRNSGTIGYVDSVLGRFTISRDNAKNSLYLQMNSLRPEDTALYYCAKDKGWLLGMDVWGQGTTVTVSS VL: DIQMTQSPSSLSASVGDRVTITCRASQAIRNDLGWYQQKPGKAPKRLIYAASSLQSGVPSRFSGSGSGTEFALTISSLQPEDFATYYCLQYNSYLYTFGQGTKLEIK
7.01

Moving on to H4H2538P (antibody, V domains shown) VH: QVQLVQSGAEVKKPGASVKVSCKASGYTFTDYYMHWVRQAPGQGLEWIGWINPNSGGSNFAQKFQGRVTMTRDTSISTAYMELSRLRSDDTAVYYCARKAGYTSSWFDYWGQGTLVTVSS VL: DIVMTQSPDSLAVSLGERATINCKSSQSVLYSFNNKNYLSWYQQKPGQPPKLLIYWASTRESGVPDRFSGSGSGTDFTLTISSLQAEDAAVYYCQQYYSMITFGQGTRLEIK
9.43

Moving on to H4H2477N2 (antibody, V domains shown) VH: QVQLQQWGAGLLKPSETLSLTCAVYGGSFSDYYWSWIRQPPGKGLEWIGEINHRGNTNYNPSLKSRVTISVDTSKNQFSLKLRSVTAADMAVYYCARIQLWLRGYDYYGMDVWGQGTTVTVSS VL: DIQMTQSPSSLSASVGDRVTITCRASQGIRNDLGWYQQKPGKAPKRLIYAASSLQGGVPSRFSGSGSGTEFSLTISSLQPEDFASYYCLQHNTYPWTFGQGTKVEIK
7.36
